# Study target: Rhodesain (Trypanosoma brucei rhodesiense)
# Protocol description: Inhibition of recombinant Trypanosoma brucei rhodesiense rhodesain expressed in Pichia pastoris assessed as second order rate constant using Cbz-Phe-Arg-AMC as substrate after 30 mins by fluorescence assay
Measure: K (×10³ /M/min)

Substance smiles	Result number
CC(=O)/C=C/[C@H](CCc1ccccc1)NC(=O)[C@H](CC(C)C)NC(=O)OCc1ccc([N+](=O)[O-])cc1	2970
COC(=O)/C=C/[C@H](CCc1ccccc1)NC(=O)[C@H](Cc1ccccc1)NC(=O)OCc1ccc([N+](=O)[O-])cc1	347
O=C(N[C@@H](Cc1ccccc1)C(=O)N[C@H](/C=C/S(=O)(=O)c1ccccc1)CCc1ccccc1)OCc1ccc([N+](=O)[O-])cc1	334
CC(C)C[C@H](NC(=O)OCc1ccc([N+](=O)[O-])cc1)C(=O)N[C@H](/C=C/S(=O)(=O)c1ccccc1)CCc1ccccc1	304
O=C(N[C@@H](Cc1ccccc1)C(=O)N[C@H](/C=C/S(=O)(=O)c1ccccc1)CCc1ccccc1)OCc1ccccc1	663
N#C/C=C/[C@H](CCc1ccccc1)NC(=O)[C@H](Cc1ccccc1)NC(=O)OCc1ccccc1	12
COC(=O)/C=C/[C@H](CCc1ccccc1)NC(=O)[C@H](Cc1ccccc1)NC(=O)OCc1ccccc1	919
CC(=O)/C=C/[C@H](CCc1ccccc1)NC(=O)[C@H](CC(C)C)NC(=O)OCc1ccccc1	3800
CC(=O)/C=C/[C@H](CCc1ccccc1)NC(=O)[C@H](Cc1ccccc1)NC(=O)OCc1ccccc1	67000
CC(C)C[C@H](NC(=O)OCc1ccccc1)C(=O)N[C@H](/C=C/S(=O)(=O)c1ccccc1)CCc1ccccc1	342
CC(C)C[C@H](NC(=O)OCc1ccccc1)C(=O)N[C@H](/C=C/C#N)CCc1ccccc1	19
CC(C)C[C@H](NC(=O)[C@H]1O[C@@H]1C(=O)O)C(=O)NCCCCN=C(N)N	261
COC(=O)/C=C/[C@H](CCc1ccccc1)NC(=O)[C@H](CC(C)C)NC(=O)OCc1ccccc1	509
CC(=O)/C=C/[C@H](CCc1ccccc1)NC(=O)[C@H](Cc1ccccc1)NC(=O)OCc1ccc([N+](=O)[O-])cc1	24400
COC(=O)/C=C/[C@H](CCc1ccccc1)NC(=O)[C@H](CC(C)C)NC(=O)OCc1ccc([N+](=O)[O-])cc1	152
N#C/C=C/[C@H](CCc1ccccc1)NC(=O)[C@H](Cc1ccccc1)NC(=O)OCc1ccc([N+](=O)[O-])cc1	0.26
